- measurement.protocol: Stability test of ADC mimic in rat plasma (eliminated fluorescent molecules by HPLC/fluorescence detection)
- Assay type: in vitro ADME
- condition.parameters: ADC mimic 0.1 mg/mL, 37° C. for 4 days vs -80° C. (Day 0 = 100%)
Listed here: items and their measured Elimination rate of fluorescence molecule at Day = 4.

Below, each entry is followed by its recorded Elimination rate of fluorescence molecule at Day = 4 result.
{"chemical.smiles": "CCCNC(=O)c1cc(N=[N+]=[N-])cc(C(=O)NO)c1", "observed": "<3%"}
{"chemical.smiles": "CCNC(=O)CC[C@H](NC(=O)CCCCN=[N+]=[N-])C(=O)NOC", "observed": "<3%"}
{"chemical.smiles": "CCCNC(=O)C[C@H](NC(=O)COCCOCCOCCN=[N+]=[N-])C(=O)NO", "observed": "20%"}

Elimination rate of fluorescence molecule at Day = 4 measured on CCCNC(=O)CC[C@H](NC(=O)CCCCN=[N+]=[N-])C(=O)NO = <3%

Noted for CCCNC(=O)CC[C@H](NC(=O)CCCCN=[N+]=[N-])C(=O)NOC : its Elimination rate of fluorescence molecule at Day = 4 reads <3%

Entry CCCNC(=O)C[C@H](NC(=O)CCCCN=[N+]=[N-])C(=O)NO , Elimination rate of fluorescence molecule at Day = 4 reported as 21%
